Data provenance: BindingDB's records for doi:10.1038/sj.bjp.0701367

Molecular target: UniProtKB P35375
Sequence (P35375 whole entry): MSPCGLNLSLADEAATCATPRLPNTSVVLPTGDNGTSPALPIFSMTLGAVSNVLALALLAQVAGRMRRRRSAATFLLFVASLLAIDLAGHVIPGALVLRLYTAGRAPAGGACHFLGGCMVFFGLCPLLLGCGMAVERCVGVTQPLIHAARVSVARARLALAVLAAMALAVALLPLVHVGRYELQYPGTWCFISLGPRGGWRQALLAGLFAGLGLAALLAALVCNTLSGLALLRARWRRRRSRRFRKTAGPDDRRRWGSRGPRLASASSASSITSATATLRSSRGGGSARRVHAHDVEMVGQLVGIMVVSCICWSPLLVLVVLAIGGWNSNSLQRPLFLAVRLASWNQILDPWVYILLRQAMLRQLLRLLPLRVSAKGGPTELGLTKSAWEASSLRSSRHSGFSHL
pKi: −log10 of the molar value.
Assay endpoint: pKi

Worked examples follow.
O=C(O)CCC/C=C\C[C@H]1C(=O)C[C@@H](O)[C@@H]1/C=C/[C@@H](O)CCc1ccccc1 [17-PHENYL TRINOR PROSTAGLANDIN E2] : 7.85
CCCCC[C@@H](O)/C=C/[C@H]1[C@H](O)CC(=O)[C@@H]1CCCCCCC(=O)O : 7.44

(P) CCCCCC(O)C=CC1CCC(=O)C1CCCCCCC(=O)O (centres undefined)
(Q) CS(=O)(=O)NC(=O)CCCC=CCC1C(=O)CC(O)C1C=CC(O)COc1ccccc1 (centres undefined)
Challenge: Short answer wanted: higher pKi, P or Q ? To answer, give the label that identifies your chosen option.
Response given: Q

----------
Target: Prostaglandin E2 receptor EP2 subtype (Mus musculus)
Sequence (Q62053 whole entry): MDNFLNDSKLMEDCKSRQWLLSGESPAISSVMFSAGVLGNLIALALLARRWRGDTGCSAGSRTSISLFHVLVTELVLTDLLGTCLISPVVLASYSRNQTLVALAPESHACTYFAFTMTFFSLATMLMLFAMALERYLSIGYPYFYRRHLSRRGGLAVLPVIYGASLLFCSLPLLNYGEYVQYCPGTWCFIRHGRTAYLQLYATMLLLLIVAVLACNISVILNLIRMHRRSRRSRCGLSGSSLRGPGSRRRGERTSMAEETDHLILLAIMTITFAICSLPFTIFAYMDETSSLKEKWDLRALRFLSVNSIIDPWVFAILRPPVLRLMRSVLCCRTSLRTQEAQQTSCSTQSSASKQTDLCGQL
Assay endpoint: Ki (µM)

Worked examples follow.
CCCCC(C)(O)CC=CC1C(O)CC(=O)C1CCCCCCC(=O)OC (stereo not given) : 0.25
CCCCC[C@H](O)/C=C/[C@@H]1[C@H]2C/C(=C\CCCC(=O)O)C[C@H]2C[C@H]1O : 1.6

(1) CCCCCC(O)C=CC1C(O)CC2C=C(CCCCC(=O)O)CC21 (stereo not given)
(2) CCCCCC(O)c1ccc(C2CCC(=O)C2CCCCCCC(=O)O)cc1 (stereo not given)
(3) CC(C)Oc1ccc2c(=O)c3cc(C(=O)O)ccc3oc2c1
Challenge: Hey, quick one: sort these by Ki, largest value first please. Answer format: the labels, ordered as requested.
Response given: 1, 3, 2
(1: 1 µM, 3: 0.35 µM, 2: 0.24 µM)

----------
pKi: −log10 of the molar value.
Observed pKi for Thromboxane A2 receptor (Mus musculus), reported per entry below.
Assay endpoint: pKi

(P) O=C(O)CCC/C=C\C[C@@H]1C(NS(=O)(=O)c2ccccc2)C2CC[C@@H]1C2 (single isomer, unassigned; (+))
(Q) O=C(O)CC/C=C\CC[C@@H]1[C@@H](N2CCCCC2)[C@@H](O)C[C@@H]1OCc1ccc(-c2ccccc2)cc1
Challenge: Short answer wanted: higher pKi, P or Q ? To answer, give the label that identifies your chosen option.
Response given: P

----------
Target: Prostaglandin E2 receptor EP4 subtype (Mus musculus)
Sequence (P32240 whole entry): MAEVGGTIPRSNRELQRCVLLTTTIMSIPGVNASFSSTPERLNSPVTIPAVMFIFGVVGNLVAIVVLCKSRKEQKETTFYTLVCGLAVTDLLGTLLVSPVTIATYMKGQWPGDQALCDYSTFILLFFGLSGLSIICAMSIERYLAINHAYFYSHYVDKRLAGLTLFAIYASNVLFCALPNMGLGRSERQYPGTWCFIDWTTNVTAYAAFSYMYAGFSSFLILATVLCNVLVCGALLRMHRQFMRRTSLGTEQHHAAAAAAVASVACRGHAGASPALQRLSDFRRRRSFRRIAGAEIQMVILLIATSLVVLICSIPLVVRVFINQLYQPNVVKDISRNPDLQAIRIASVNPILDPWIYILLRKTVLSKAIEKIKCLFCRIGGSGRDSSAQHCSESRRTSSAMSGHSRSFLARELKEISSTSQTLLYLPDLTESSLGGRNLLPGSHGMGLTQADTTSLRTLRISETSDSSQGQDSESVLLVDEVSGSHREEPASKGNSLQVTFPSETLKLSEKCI
pKi: −log10 of the molar value.
Assay endpoint: pKi

Worked examples follow.
O=C(O)CCCCCCC1C(=O)CC(O)C1C=CC(O)CCCCCO (stereo not given) : 6.72
O=C(O)CCC/C=C\C[C@H]1C(=O)C[C@@H](O)[C@@H]1/C=C/[C@@H](O)CCc1ccccc1 [17-PHENYL TRINOR PROSTAGLANDIN E2] : 6.00
CCCCC[C@H](O)/C=C/[C@@H]1[C@H]2C/C(=C\CCCC(=O)O)C[C@H]2C[C@H]1O : 5.64

(A) CCCCC(C)(C)C(O)C=CC1C(O)CC(=O)C1CC=CCCCC(=O)O (stereo not given)
(B) CCCCC[C@@H](O)/C=C/[C@H]1[C@H](O)CC(=O)[C@@H]1CCCCCCC(=O)O
Challenge: Please choose the item with the lower pKi value from this pair: A and B To answer, give the label that identifies your chosen option.
Response given: A
(A: 7.37, B: 8.68)

----------
Observed Ki for Prostacyclin receptor (Mus musculus, UniProt P43252), reported per entry below.
Assay endpoint: Ki (nM)

(a) CCCCCC(O)C=CC1CCC(=O)C1CCCCCCC(=O)O (configuration not stated)
(b) CCCCC[C@@H](O)/C=C/[C@H]1[C@H](O)CC(=O)[C@@H]1CCCCCCC(=O)O
Challenge: Short answer wanted: higher Ki, a or b ? To answer, give the label that identifies your chosen option.
Response given: a
(a: 1000 nM, b: 33 nM)

----------
Target: Prostaglandin F2-alpha receptor (Mus musculus, UniProt P43117)
Sequence (P43117 whole entry): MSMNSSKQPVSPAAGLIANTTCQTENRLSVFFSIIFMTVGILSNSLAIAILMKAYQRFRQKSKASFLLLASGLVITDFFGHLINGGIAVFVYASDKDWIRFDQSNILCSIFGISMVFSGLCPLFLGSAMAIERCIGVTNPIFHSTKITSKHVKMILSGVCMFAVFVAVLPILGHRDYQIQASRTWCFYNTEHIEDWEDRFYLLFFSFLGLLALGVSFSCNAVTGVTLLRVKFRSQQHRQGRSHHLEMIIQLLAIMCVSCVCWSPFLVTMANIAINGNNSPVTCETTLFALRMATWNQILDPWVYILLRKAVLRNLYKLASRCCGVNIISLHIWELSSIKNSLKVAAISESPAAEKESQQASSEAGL
Assay endpoint: Ki (nM)

Worked examples follow.
CCCCC[C@H](O)/C=C/[C@@H]1[C@H]2C/C(=C\CCCC(=O)O)C[C@H]2C[C@H]1O : 1200
C[C@H](O)CCCC(O)C=CC1C(O)CC(=O)C1CC=CCCCC(=O)O (stereo not given in full) [PGE2,19R(OH)] : 1000
O=C(O)CCC/C=C\C[C@H]1C(=O)C[C@@H](O)[C@@H]1/C=C/[C@@H](O)CCc1ccccc1 [17-PHENYL TRINOR PROSTAGLANDIN E2] : 60

(P) O=C(O)CCCCCCC1C(=O)CCC1C=CC(O)COc1ccccc1 (stereo not given)
(Q) CS(=O)(=O)NC(=O)CCCC=CCC1C(=O)CC(O)C1C=CC(O)COc1ccccc1 (stereo not given)
Challenge: Short answer wanted: higher Ki, P or Q ? To answer, give the label that identifies your chosen option.
Response given: Q
(Q: 580 nM, P: 124 nM)

----------
Observed Ki for Prostaglandin E2 receptor EP3 subtype (Mus musculus, UniProt P30557), reported per entry below.
Assay endpoint: Ki (nM)

O=C(O)CCC/C=C\C[C@H]1C(=O)C[C@@H](O)[C@@H]1/C=C/[C@@H](O)CCc1ccccc1 [17-PHENYL TRINOR PROSTAGLANDIN E2] : 3.7
CCCCCC(O)CC=C1C(=O)C=CC1CC=CCCCC(=O)O (stereo not given) : 280
O=C(O)CCC/C=C\C[C@H]1[C@@H]2CCC(O2)[C@@H]1/C=C/[C@@H](O)COc1ccc(I)cc1 : 100
CCCCCC(O)C=CC1CCC(=O)C1CCCCCCC(=O)O (stereo not given) : 1.5
O=C(CCC=CCCC1C(=O)CC(O)C1OCC(O)COc1ccccc1)Oc1ccc(NC(=O)c2ccccc2)cc1 (stereo not given) : 1.9
CCCCC[C@H](O)/C=C/[C@H]1[C@H](O)CC(=O)[C@@H]1C/C=C\CCCC(=O)O : 0.85

(I) CCC#CCC(C)C(O)C#CC1C(O)CC2CC(=CCOCC(=O)O)CC21 (stereo not given)
(II) O=C(O)CCCCCCC1C(=O)CCC1C=CC(O)COc1ccccc1 (stereo not given)
Challenge: Short answer wanted: higher Ki, I or II ? To answer, give the label that identifies your chosen option.
Response given: I

(a) CCCCC[C@H](O)/C=C/C1C[C@H]2C[C@H](S2)[C@@H]1C/C=C\CCCC(=O)O (stereo not given in full)
(b) O=C(O)CCCCCCC1C(=O)CC(O)C1C=CC(O)CCCCCO (stereo not given)
Challenge: Please choose the item with the lower Ki value from this pair: a and b To answer, give the label that identifies your chosen option.
Response given: a
(a: 23 nM, b: 330 nM)
